system: Fcf1 (recombinant dTDP-D-GIcO reductase); assay: Divalent cation requirements of Fcf1 (effects of cations on enzyme activity); format: biochemical, E. coli O52; conditions: in the presence of 5 mM divalent ion chloride; 100 without ion
endpoint name: Transformation rate (%)
Your answer should be a plain number; it is taken to be in %.

Solved cases below.
{"columns": ["compound", "assayed system", "unit symbol", "Transformation rate (%)"],
 "data": [
  ["[Ca+2].[Cl-].[Cl-] [Ca^2+, CaCl2]", "Fcf1 (recombinant dTDP-D-GIcO reductase)", "%", 98.1],
  ["[Cl][Fe][Cl] [Fe^2+, FeCl2]", "Fcf1 (recombinant dTDP-D-GIcO reductase)", "%", 90.5],
  ["[Cl-].[Cl-].[Co+2] [Co^2+, CoCl2]", "Fcf1 (recombinant dTDP-D-GIcO reductase)", "%", 89.2],
  ["[Cl][Mn][Cl] [Mn^2+, MnCl2]", "Fcf1 (recombinant dTDP-D-GIcO reductase)", "%", 100],
  ["[Cl][Cu][Cl] [Cu^2+, CuCl2]", "Fcf1 (recombinant dTDP-D-GIcO reductase)", "%", 11.8]
]}

Now, please, on to the next compound.
-- ask For [Cl-].[Cl-].[Mg+2] [Mg^2+, MgCl2] , what is its reported Transformation rate (%)?
-- reply 100
